src = PubChem BioAssay (NCATS)

# run_description: qHTS assay for small molecule activators of the nuclear factor-kappa B (NF-kB) signaling pathway (AID 651749); also: series mostly up to about 77 µM; % of control where 0% means no effect
# condition_details: NF-kB-bla ME-180 cells, beta-lactamase FRET ratio, 16 h; active compounds read high
Inconclusive results are not listed.
What activation was measured for each of the following?
Give bare numbers, in %.

Recorded activation, per entry:
activation recorded for this molecule, NN(c1ccccc1)c1ccccc1 , is -2.86

activation recorded for this molecule, CCCCCCCOC(=O)c1ccccc1C(=O)OCCCCCCC , is -1.95

activation recorded for this molecule, CN=C(N)NCC1CCOC1 (centres undefined) , is -4.18

activation recorded for this molecule, CCOCCOCCOCC , is -0.223

activation recorded for this molecule, O=c1oc(=O)c2cc3c(=O)oc(=O)c3cc12 , is -1.97

activation recorded for this molecule, c1ccc(OCCOc2ccccc2)cc1 , is -1.28

activation recorded for this molecule, CC(C)OB(OC(C)C)OC(C)C , is 1.02

activation recorded for this molecule, CC(C)(C)C1CCC(O)CC1 (centres undefined) , is 0.471

activation recorded for this molecule, O=C(O)CCCCCCCCCCC(=O)O , is -0.986

activation recorded for this molecule, O=C(O)C(c1ccc(Cl)cc1)c1ccc(Cl)cc1 , is 0.121

For each entry beneath this line, provide reported activation.
1. CCCCOCC(C)OCC(C)O (centres undefined)
2. CCCCCCCC/C=C\CCCCCCCC(=O)OC

Result:
1. -0.368
2. -2.39

For each entry beneath this line, provide reported activation.
1. CCCCCCCCCCCCCCCCCCN
2. C=C(C)C(=O)OCCOC(=O)C(=C)C
3. CCCCOCCOCCOC(C)=O
4. O=C(O)c1cc2ccccc2cc1O

Result:
[0.495, -0.69, -2.2, 0.405]

For each entry beneath this line, provide reported activation.
1. CCCCCCCC(=O)Oc1c(Br)cc(C#N)cc1Br
2. CCO[Si](CCC#N)(OCC)OCC
3. CCCCCCC(C)OC(=O)COc1nc(F)c(Cl)c(N)c1Cl (centres undefined)
4. O=C=NCCCCCCN=C=O
5. CCOC(=O)c1ccccc1C

Result:
[-2.23, 0.629, 3.49, 0.731, 0.727]

For each entry beneath this line, provide reported activation.
1. CC(C)(C)C(O)/C(=C\c1ccc(Cl)cc1)n1cncn1 (centres undefined)
2. Cc1ccc(Cl)cc1Cl
3. O=S(=O)(O)c1cc(S(=O)(=O)O)c2c(N=Nc3ccccc3)c(O)ccc2c1
4. COC(=O)c1cccc(C)c1S(=O)(=O)NC(=O)Nc1nc(OCC(F)(F)F)nc(N(C)C)n1
5. C/C=C/C=C/CCCCCCCO
6. C[Si](C)(Cl)[Si](C)(C)Cl
7. CCCCCCCCCCCCCCCCCC(N)=O

Result:
1: -1.6; 2: -1.58; 3: 1.12; 4: 0.0138; 5: -0.666; 6: -1.24; 7: -1.76

For each entry beneath this line, provide reported activation.
1. COCCOCCOCCOC
2. CC(=O)CC(=O)Nc1ccccc1C
3. CO[Si](CCCOCC1CO1)(OC)OC (centres undefined)
4. OCc1cccc(Oc2ccccc2)c1
5. COC(=O)c1c(Cl)nn(C)c1S(=O)(=O)NC(=O)Nc1nc(OC)cc(OC)n1
6. CCCC/C=C\CCCCCCCCCC=O

Result:
[0.99, -0.183, -2.38, 2.29, -2.65, -0.297]
